- System: HCT-116
- protocol: Cytotoxicity against human HCT116 cells after 72 hrs by sulforhodamine B assay
- Format: functional, cell-based
- experimental_conditions: Homo sapiens, HCT-116, 72 h
Where a SMILES comes first, the peptide text is derived from it.
reported_metric: IC50

compound	IC50
CC[C@H](C)[C@@H]1NC(=O)[C@@H]2CCCN2C(=O)[C@@H]2CCCN2C(=O)[C@H]([C@@H](C)CC)NC(=O)[C@H](Cc2ccc(O)cc2)NC(=O)[C@@H]2CCCN2C(=O)[C@@H]2CCCN2C(=O)[C@H](CC(C)C)NC(=O)[C@H](C(C)C)NC(=O)[C@H](Cc2ccccc2)NC1=O (HELM PEPTIDE1{F.V.L.P.P.Y.I.P.P.I}$PEPTIDE1,PEPTIDE1,1:R1-10:R2$$$V2.0)	0.1 µM

Task item: Look up IC50 of COc1cc([C@@H]2c3cc4c(cc3[C@@H](O[C@@H]3O[C@@H]5CO[C@@H](C)O[C@H]5[C@H](O)[C@H]3O)[C@H]3COC(=O)[C@H]23)OCO4)cc(OC)c1O [ETOPOSIDE] and report it.
Reply: 0.68 µM

Task item: Fill in reported IC50 for this entry: CC[C@H](C)[C@@H]1NC(=O)[C@@H]2CCCN2C(=O)[C@H](Cc2ccccc2)NC(=O)[C@@H]2CCCN2C(=O)[C@H](Cc2ccc(O)cc2)NC(=O)[C@@H]2CCCN2C(=O)[C@H]([C@@H](C)CC)NC1=O [PHAKELLISTATIN 2] (HELM PEPTIDE1{F.P.I.I.P.Y.P}$PEPTIDE1,PEPTIDE1,1:R1-7:R2$$$V2.0)
Reply: 0.71 µM

----------
- Tested on: HCT-116
- protocol: Cytotoxicity against human HCT116 cells after 72 hrs by sulforhodamine B assay
- Type: functional, cell-based
- experimental_conditions: Homo sapiens, HCT-116, 72 h
Where a SMILES comes first, the peptide text is derived from it.
Below, each of the compounds is paired with its reported IC50 value.

Please review the entries below; each comes with its answer.
compound	observed_result
CC[C@H](C)[C@@H]1NC(=O)[C@@H]2CCCN2C(=O)[C@H](Cc2ccc(O)cc2)NC(=O)[C@@H]2CCCN2C(=O)[C@H]([C@@H](C)CC)NC(=O)[C@@H]2CCCN2C(=O)[C@H](Cc2ccccc2)NC1=O (HELM PEPTIDE1{F.P.I.P.Y.P.I}$PEPTIDE1,PEPTIDE1,1:R1-7:R2$$$V2.0)	3.9 µM
CC[C@H](C)[C@@H]1NC(=O)[C@H](C)NC(=O)[C@H](CC[S+](C)[O-])NC(=O)[C@H](C)NC(=O)[C@H](CC(N)=O)NC(=O)[C@H](Cc2ccccc2)NC(=O)[C@@H]2CCCN2C1=O (stereo partly specified) (HELM PEPTIDE1{A.I.P.F.N.A.[CS(=O)CC[C@H](N[*:1])C(=O)[*:2]]}$PEPTIDE1,PEPTIDE1,1:R1-7:R2$$$V2.0)	12 µM

Task item: Give the value of IC50 reported for the following: CC[C@H](C)[C@@H]1NC(=O)[C@H](C)NC(=O)[C@H](CC(C)C)NC(=O)[C@@H]2CCCN2C(=O)[C@H](CC(=O)O)NC(=O)[C@H](Cc2ccc(O)cc2)NC(=O)[C@@H]2CCCN2C1=O (HELM PEPTIDE1{A.I.P.Y.D.P.L}$PEPTIDE1,PEPTIDE1,1:R1-7:R2$$$V2.0)
Reply: > 50 µM

Task item: Tell me measured IC50 for CC[C@H](C)[C@@H]1NC(=O)[C@H](Cc2ccccc2)NC(=O)[C@@H]2CCCN2C(=O)[C@@H]([C@H](C)O)NC(=O)[C@@H]2CCCN2C(=O)[C@H](CO)NC(=O)[C@H](C)NC1=O please.
Reply: 4.5 µM

Task item: Output IC50 of CC[C@H](C)[C@@H]1NC(=O)[C@H](Cc2ccccc2)NC(=O)[C@@H]2CCCN2C(=O)[C@H](Cc2ccc(O)cc2)NC(=O)[C@H](CCC(=O)O)NC(=O)[C@@H]2CCCN2C(=O)[C@@H]2CCCN2C1=O (HELM PEPTIDE1{E.Y.P.F.I.P.P}$PEPTIDE1,PEPTIDE1,1:R1-7:R2$$$V2.0)
Reply: 6.2 µM

Task item: Complete the entry with IC50 for CC(C)C[C@@H]1NC(=O)[C@H](CO)NC(=O)[C@@H]2CCCN2C(=O)[C@H](Cc2ccc(O)cc2)NC(=O)[C@H](Cc2ccc(O)cc2)NC(=O)[C@@H]2CCCN2C(=O)[C@H](Cc2ccc(O)cc2)NC1=O (HELM PEPTIDE1{L.Y.P.Y.Y.P.S}$PEPTIDE1,PEPTIDE1,1:R1-7:R2$$$V2.0)
Reply: > 50 µM
